# ASSAYED TARGET: CDK1B (Homo sapiens, UniProt P06493)
# Sequence (P06493 whole entry): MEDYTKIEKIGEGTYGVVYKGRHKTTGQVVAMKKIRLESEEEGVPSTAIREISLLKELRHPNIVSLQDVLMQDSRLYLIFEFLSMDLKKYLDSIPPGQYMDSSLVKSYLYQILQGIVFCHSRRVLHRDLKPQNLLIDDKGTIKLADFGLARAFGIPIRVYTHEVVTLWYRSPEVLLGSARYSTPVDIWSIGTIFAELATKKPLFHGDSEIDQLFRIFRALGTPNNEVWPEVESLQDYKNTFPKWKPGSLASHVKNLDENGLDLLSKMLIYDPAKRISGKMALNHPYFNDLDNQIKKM
# Sequence (P14635 whole entry partner): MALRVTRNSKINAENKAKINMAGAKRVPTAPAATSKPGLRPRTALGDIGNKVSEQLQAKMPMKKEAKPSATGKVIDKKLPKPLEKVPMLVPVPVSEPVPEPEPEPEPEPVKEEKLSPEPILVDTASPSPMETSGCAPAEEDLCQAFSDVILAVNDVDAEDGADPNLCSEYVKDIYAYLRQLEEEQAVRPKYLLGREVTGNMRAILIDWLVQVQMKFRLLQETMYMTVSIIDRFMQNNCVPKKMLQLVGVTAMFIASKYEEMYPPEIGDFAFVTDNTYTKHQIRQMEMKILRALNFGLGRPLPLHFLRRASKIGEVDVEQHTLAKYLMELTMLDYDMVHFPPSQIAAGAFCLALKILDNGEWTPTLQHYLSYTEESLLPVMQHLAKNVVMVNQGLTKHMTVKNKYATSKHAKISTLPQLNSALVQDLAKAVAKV
ASSAY METRIC: pIC50
Quick note: pIC50 means taking -log10 of the concentration in moles per liter.

>  <MOLECULE>
Cc1nc(C)c(-c2ccnc(Nc3ccc(N(C)C)cc3)n2)s1 [Compound 4]

>  <ASSAY VALUE>
5.13

$$$$

From here, focus on the item given below.
Item CCNc1nc(C)c(-c2ccnc(Nc3ccc(S(C)(=O)=O)cc3)n2)s1 [Compound 10] : provide pIC50
5.83

----------
# ASSAYED TARGET: AurB (Homo sapiens, UniProt Q96GD4)
# Sequence (Q96GD4 whole entry): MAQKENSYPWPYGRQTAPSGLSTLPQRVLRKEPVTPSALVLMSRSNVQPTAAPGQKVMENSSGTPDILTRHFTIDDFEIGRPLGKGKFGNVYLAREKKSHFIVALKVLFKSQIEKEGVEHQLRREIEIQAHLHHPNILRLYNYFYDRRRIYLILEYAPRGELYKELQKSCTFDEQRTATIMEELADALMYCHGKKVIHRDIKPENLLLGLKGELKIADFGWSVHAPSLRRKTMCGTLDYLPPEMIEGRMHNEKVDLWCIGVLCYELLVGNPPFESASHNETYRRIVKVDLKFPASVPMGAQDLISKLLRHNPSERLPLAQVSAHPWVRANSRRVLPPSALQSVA
ASSAY METRIC: IC50 (nM)
Write the answer as a number in nM, unit excluded.

>  <TEST SMILES>
Cc1nc(C)c(-c2ccnc(Nc3ccc(N(C)C)cc3)n2)s1

>  <ASSAYED TARGET>
AurB (Homo sapiens, UniProt Q96GD4)

>  <IC50, nM>
30

$$$$
>  <TEST SMILES>
CC[C@H](Nc1nc(NCc2cccnc2)c2ncn(C(C)C)c2n1)[C@@H](C)O

>  <ASSAYED TARGET>
AurB (Homo sapiens, UniProt Q96GD4)

>  <IC50, nM>
399

$$$$
>  <TEST SMILES>
CCNc1nc(C)c(-c2ccnc(Nc3ccc(CNC(C)=O)cc3)n2)s1

>  <ASSAYED TARGET>
AurB (Homo sapiens, UniProt Q96GD4)

>  <IC50, nM>
21

$$$$

Could you now consider this next molecule?
State its IC50 for this molecule: CC[C@@H](Nc1nc(NCc2cccnc2)c2ncn(C(C)C)c2n1)C(C)(C)O
23
